Cited source: paper PMC8456950

target: Human D2R (Homo sapiens); construct: expressed in transfected cells; host or cells: CHO-D2R #S20 cell line (membranes); assay: D2R competition binding ([3H]-spiperone displacement); settings: 10 μM compound, mean±SEM of three experiments
Sequence (P14416 whole entry): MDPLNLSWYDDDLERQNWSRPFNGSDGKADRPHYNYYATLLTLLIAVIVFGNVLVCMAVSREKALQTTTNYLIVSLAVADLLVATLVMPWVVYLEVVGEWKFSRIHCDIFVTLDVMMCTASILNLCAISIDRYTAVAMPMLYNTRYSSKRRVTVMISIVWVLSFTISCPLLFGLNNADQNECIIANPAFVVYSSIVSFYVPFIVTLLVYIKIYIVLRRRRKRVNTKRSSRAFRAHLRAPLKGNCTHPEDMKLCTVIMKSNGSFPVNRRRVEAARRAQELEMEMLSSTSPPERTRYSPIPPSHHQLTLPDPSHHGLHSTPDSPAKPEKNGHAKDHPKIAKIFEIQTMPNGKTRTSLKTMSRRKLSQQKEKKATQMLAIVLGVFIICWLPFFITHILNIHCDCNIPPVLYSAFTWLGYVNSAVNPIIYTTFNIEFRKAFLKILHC
measured.attribute: D2R % displacement at 10 μM

# get_value(readout='D2R % displacement at 10 μM', item= CCCCCC(=O)Nc1nc2c(C)cccc2s1 )
1±2%

====

molecular target: Human A2AAR (Homo sapiens, UniProt P29274); assay: A2AAR competition binding ([3H]-ZM241385 displacement); design: expressed in transfected cells; host or cells: HeLa-A2AAR cell line (membranes); details: 10 μM compound, mean±SEM of three experiments
Sequence (P29274 whole entry): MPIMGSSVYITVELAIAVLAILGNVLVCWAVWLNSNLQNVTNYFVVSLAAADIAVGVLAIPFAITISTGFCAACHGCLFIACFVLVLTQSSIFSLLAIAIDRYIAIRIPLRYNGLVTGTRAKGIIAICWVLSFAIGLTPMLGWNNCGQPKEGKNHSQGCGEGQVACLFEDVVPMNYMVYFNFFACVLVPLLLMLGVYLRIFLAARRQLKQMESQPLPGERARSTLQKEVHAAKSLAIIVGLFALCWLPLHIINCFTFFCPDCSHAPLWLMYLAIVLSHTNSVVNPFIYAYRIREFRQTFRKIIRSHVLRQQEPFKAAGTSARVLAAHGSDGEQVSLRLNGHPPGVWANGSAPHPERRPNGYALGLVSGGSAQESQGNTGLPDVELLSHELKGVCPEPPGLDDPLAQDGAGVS
measured.attribute: A2AAR % displacement at 10 μM (%)
Your answer is read as %, so omit the unit and give the number.

Consider the worked cases shown below.
- compound: "CNC(=O)CCCCN(C)C1Cc2ccccc2C1 [Compound 13]"
  tested.target: "Human A2AAR (Homo sapiens, UniProt P29274)"
  value.measured: 5
- compound: "Cc1nc(NC(=O)CCCCN(C)C2Cc3ccccc3C2)sc1C [Compound 5]"
  tested.target: "Human A2AAR (Homo sapiens, UniProt P29274)"
  value.measured: 3

# get_value(readout='A2AAR % displacement at 10 μM', item= CN(C)c1ncnc(NC(=O)CCCCN(C)C2Cc3ccccc3C2)n1 [Compound 7] )
4

# get_value(readout='A2AAR % displacement at 10 μM', item= Cc1ccc(NC(=O)CCCCN(C)C2Cc3ccccc3C2)nc1 [Compound 6] )
7

# get_value(readout='A2AAR % displacement at 10 μM', item= Cc1cc(C)n2nc(NCCCCN(C)C3Cc4ccccc4C3)nc2n1 [Compound 11] )
4

====

target: Human A1AR (Homo sapiens, UniProt P30542); construct: expressed in transfected cells; host or cells: CHO-A1AR cell line (membranes); test: A1AR competition binding ([3H]-DPCPX); conditions: mean±SEM of two experiments in duplicate; read-out: A1AR binding affinity Ki
Sequence (P30542 whole entry): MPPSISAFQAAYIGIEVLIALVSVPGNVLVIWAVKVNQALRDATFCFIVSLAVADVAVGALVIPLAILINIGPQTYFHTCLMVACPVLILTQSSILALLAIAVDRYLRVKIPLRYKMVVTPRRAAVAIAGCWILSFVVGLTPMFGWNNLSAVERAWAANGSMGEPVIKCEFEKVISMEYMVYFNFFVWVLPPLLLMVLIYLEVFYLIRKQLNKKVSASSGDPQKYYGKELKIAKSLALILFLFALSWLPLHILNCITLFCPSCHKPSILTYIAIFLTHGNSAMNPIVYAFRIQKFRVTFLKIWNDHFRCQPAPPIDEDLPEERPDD
pKi: −log10 of the molar value.
measured.attribute: pKi

State its pKi on Human A1AR (Homo sapiens, UniProt P30542): CCCN(CCCCC(=O)Nc1nc2c(OC)ccc(OC)c2s1)C1Cc2ccccc2C1
< 5.00

====

biological target: UniProtKB P14416; assay: D2R functional cAMP (HTRF) assay in CHO-D2 #S20 cells; settings: cAMP HTRF, CHO-D2 cells, forskolin 10 µM, mean±SEM n=3
Label scheme for EC50: bin 1 = under 1 µM, bin 2 = from 1 µM up to 9 µM, bin 3 = 9 µM and over

Some solved entries appear below for comparison.
- line.notation: "CN(CCCC(=O)Nc1nc2c(Br)cccc2s1)C1Cc2ccccc2C1"
  label.class: "bin 2"
- line.notation: "CCN(CCC(=O)Nc1nc2c(OC)ccc(C)c2s1)C1Cc2ccccc2C1"
  label.class: "bin 3"
- line.notation: "CCN(CCCCC(=O)Nc1nc2c(Br)cccc2s1)C1Cc2ccccc2C1"
  label.class: "bin 2"

Which bin, given its EC50, does COc1ccc(OC)c2sc(NC(=O)CCN(C)C3Cc4ccccc4C3)nc12 occupy?
bin 3

Which bin, given its EC50, does CN(CCC(=O)Nc1nc2c(Br)cccc2s1)C1Cc2ccccc2C1 occupy?
bin 2

Which bin, given its EC50, does CCCN(CCCCC(=O)Nc1nc2c(OC)ccc(Cl)c2s1)C1Cc2ccccc2C1 occupy?
bin 2

Which bin, given its EC50, does Cc1cccc2sc(NC(=O)CCCCN(C)C3Cc4ccccc4C3)nc12 occupy?
bin 3

Which bin, given its EC50, does CCCN(CCCCC(=O)Nc1nc2c(OC)ccc(OC)c2s1)C1Cc2ccccc2C1 occupy?
bin 1

Which bin, given its EC50, does CCCN(CCCCC(=O)Nc1nc2c(C)cccc2s1)C1Cc2ccccc2C1 occupy?
bin 1
